test system: COLO 205 colon; test: NCI tumour cell line growth inhibition, 48 h
Consider the following compounds and their measured TGI readings.
Measurement Type: TGI

[[record]]
smiles_notation = "C#C[C@]1(O)CC[C@H]2[C@@H]3CCC4=C/C(=N/OCCN(C)C)CC[C@]4(C)[C@H]3CC[C@@]21C"
result = "> 100 µM"

[[record]]
smiles_notation = "O=c1[nH]c(Cc2ccccc2)nc2c1sc1nc3ccccc3n12"
result = "> 100 µM"

[[record]]
smiles_notation = "O=C1/C(=C\\Oc2ccc(F)cc2)N2CCC1CC2"
result = "> 100 µM"

[[record]]
smiles_notation = "CCCNC(=S)/N=C/c1c(O)cc(C)oc1=O"
result = "> 100 µM"

[[record]]
smiles_notation = "CC(C)OP(=O)(OC(C)C)/C(Cl)=N/Nc1ccc([N+](=O)[O-])cc1"
result = "> 100 µM"

